target: T1, HLA-A*0101 (human); experiment: inhibition of 125I-labeled probe peptide binding to purified HLA-A*0101, gel filtration
T1 construct: also called HLA-A1
metric-name: pIC50
Expect pIC50 as a plain number equal to -log10 of the molar concentration.

Prompt line: Entry under review: HTDMLRHLY (HER2/neu analog peptide) [Her2/neu.42.T2] . Reported pIC50?
Response line: 8.72

Prompt line: Entry ETHLDMLRHLY (HER2/neu peptide) [Her2/neu.40] has what pIC50?
Response line: 7.05

Prompt line: I have this binder here, ETMPNPEGRY (HER2/neu analog peptide) [Her2/neu.280.T2] , and I need its recorded pIC50.
Response line: 8.41
